# study system: CDK2/cyclin A (Homo sapiens)
# method summary: CDK2 inhibition, Kinase-Glo Luminescent Kinase Assay
# Type: biochemical
# stated conditions: screened at 0.5 μM
endpoint: CDK2 inhibitory activity (in words)

O=[N+]([O-])c1cccc(Nc2nc(-c3ccc4c(c3)OCO4)c3nc[nH]c3n2)c1 [Compound 5d]: weak activity
O=[N+]([O-])c1cccc(Nc2nc(-c3cccc4ccccc34)c3nc[nH]c3n2)c1 [Compound 5b]: weak activity

====

# study system: CDK2/cyclin A (Homo sapiens)
# method summary: CDK2 inhibition, Kinase-Glo Luminescent Kinase Assay
# Assay type: biochemical
# stated conditions: read-out: inhibition rate (%) @0.5 μM against CDK2; compound at 0.5 μM
endpoint: inhibition at 0.5 µM (%)

CC(C)(C)c1ccc(Nc2nc(-c3cccc(CN)c3)c3nc[nH]c3n2)cc1 [Compound 11j]: 28
Cl.NCc1cccc(-c2nc(Nc3ccc(N4CCNCC4)cc3)nc3[nH]cnc23)c1 [Compound 11k]: 26
O=C(O)c1ccc(-c2nc(Nc3cccc([N+](=O)[O-])c3)nc3[nH]cnc23)cc1 [Compound 5j]: 7

(a) O=[N+]([O-])c1cccc(Nc2nc(-c3cccc4ccccc34)c3nc[nH]c3n2)c1 [Compound 5b]
(b) Cl.NCc1cccc(-c2nc(Nc3ccc(-c4ccccc4)cc3)nc3[nH]cnc23)c1 [Compound 11h]
Quick one: lower inhibition at 0.5 µM, a or b ? Identify your selection by its label. a

====

# method summary: Cytotoxicity (MTT) in human embryonic kidney cells
# Format: cell-based
# stated conditions: 293T cells
endpoint: IC50 at 48 h

Annotate the compound Cl.NCc1cccc(-c2nc(Nc3ccc(S(N)(=O)=O)cc3)nc3[nH]cnc23)c1 [Compound 11l] with its measured IC50 at 48 h. > 100 µM

====

# study system: CDK2/cyclin A (Homo sapiens, UniProt P24941)
# method summary: CDK2 inhibition, Kinase-Glo Luminescent Kinase Assay
# stated conditions: geometric means of n ⩾ 3 experiments; 10 µM ATP; read-out: IC50 against CDK2
endpoint: IC50 (nM)

Consider the following illustrative entries.
Cl.NCc1cccc(-c2nc(Nc3ccc(F)cc3)nc3[nH]cnc23)c1 [Compound 11n]: 320
O=[N+]([O-])c1cccc(Nc2nc(-c3ccccc3)c3nc[nH]c3n2)c1: 310

(A) Cc1ccc(Nc2nc(-c3cccc(CN)c3)c3nc[nH]c3n2)cc1.Cl [Compound 11i]
(B) Cl.NCc1cccc(-c2nc(Nc3cccc([N+](=O)[O-])c3)nc3[nH]cnc23)c1 [Compound 11c]
Which numeric IC50 is bigger, that of A or that of B ? Identify your selection by its label. A
(A: 280 nM, B: 110 nM)

====

# study system: CDK2/cyclin A (Homo sapiens, UniProt P24941)
# method summary: CDK2 inhibition, Kinase-Glo Luminescent Kinase Assay
# Assay type: biochemical
# stated conditions: read-out: inhibition rate (%) @0.5 μM against CDK2; compound at 0.5 μM
endpoint: inhibition at 0.5 µM (%)

Cl.Cl.NCc1cccc(-c2nc(Nc3cccc(N)c3)nc3[nH]cnc23)c1 [Compound 11m]: 33

(P) O=[N+]([O-])c1cccc(Nc2nc(-c3ccc4c(c3)OCO4)c3nc[nH]c3n2)c1 [Compound 5d]
(Q) Cl.Nc1ccc(-c2nc(Nc3cccc([N+](=O)[O-])c3)nc3[nH]cnc23)cc1 [Compound 11b]
(R) COC(=O)c1cccc(-c2nc(Nc3cccc([N+](=O)[O-])c3)nc3[nH]cnc23)c1 [Compound 5h]
(S) COC(=O)c1ccc(-c2nc(Nc3cccc([N+](=O)[O-])c3)nc3[nH]cnc23)cc1 [Compound 5k]
Could you please sort these 4 entries by inhibition at 0.5 µM from high to low? Present the labels in the sequence the task asks for. Q, R, P, S

====

Items are presented alongside their recorded melting point.

Annotate the molecule COC(=O)c1ccc(-c2nc(Nc3cccc([N+](=O)[O-])c3)nc3[nH]cnc23)cc1 [Compound 5k] with its measured melting point. 212 to 214 °C

Annotate the molecule Cl.NCc1cccc(-c2nc(Nc3ccc(N4CCNCC4)cc3)nc3[nH]cnc23)c1 [Compound 11k] with its measured melting point. > 300 °C

Annotate the molecule COC(=O)c1cccc(-c2nc(Nc3cccc([N+](=O)[O-])c3)nc3[nH]cnc23)c1 [Compound 5h] with its measured melting point. 257 °C

Annotate the molecule O=[N+]([O-])c1cccc(Nc2nc(-c3cccc([N+](=O)[O-])c3)c3nc[nH]c3n2)c1 [Compound 5f, N,6-bis(3-nitrophenyl)-9H-purin-2-amine] with its measured melting point. > 300 °C

Annotate the molecule Cl.Nc1ccc(-c2nc(Nc3cccc([N+](=O)[O-])c3)nc3[nH]cnc23)cc1 [Compound 11b] with its measured melting point. > 300 °C

Annotate the molecule Cl.NCc1ccc(-c2nc(Nc3ccccc3)nc3[nH]cnc23)cc1 [Compound 11g] with its measured melting point. 200 to 202 °C

Annotate the molecule O=C(O)c1ccc(-c2nc(Nc3cccc([N+](=O)[O-])c3)nc3[nH]cnc23)cc1 [Compound 5j] with its measured melting point. > 300 °C

Annotate the molecule Cl.Nc1cccc(-c2nc(Nc3cccc([N+](=O)[O-])c3)nc3[nH]cnc23)c1 [Compound 11a] with its measured melting point. > 300 °C

Annotate the molecule CN(C)S(=O)(=O)c1ccc(Nc2nc(-c3cccc(CN)c3)c3nc[nH]c3n2)cc1.Cl [Compound 11q] with its measured melting point. > 300 °C

Annotate the molecule O=[N+]([O-])c1cccc(Nc2nc(-c3cccc4ccccc34)c3nc[nH]c3n2)c1 [Compound 5b] with its measured melting point. > 300 °C

Annotate the molecule Cl.NCCc1cccc(-c2nc(Nc3cccc([N+](=O)[O-])c3)nc3[nH]cnc23)c1 [Compound 11e] with its measured melting point. > 230 °C

====

# study system: CDK6/cyclin D3 (Homo sapiens, UniProt Q00534)
# Sequence (Q00534 whole entry): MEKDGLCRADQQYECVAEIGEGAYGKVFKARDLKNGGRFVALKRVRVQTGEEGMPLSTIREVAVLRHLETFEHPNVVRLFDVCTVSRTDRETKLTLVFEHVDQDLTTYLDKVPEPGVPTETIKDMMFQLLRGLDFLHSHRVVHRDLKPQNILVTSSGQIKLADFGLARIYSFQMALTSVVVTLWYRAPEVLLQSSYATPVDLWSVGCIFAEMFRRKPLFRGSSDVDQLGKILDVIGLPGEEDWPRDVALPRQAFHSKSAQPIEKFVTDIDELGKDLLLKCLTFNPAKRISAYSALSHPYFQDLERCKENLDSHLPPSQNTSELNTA
# Sequence (P30281 whole entry partner): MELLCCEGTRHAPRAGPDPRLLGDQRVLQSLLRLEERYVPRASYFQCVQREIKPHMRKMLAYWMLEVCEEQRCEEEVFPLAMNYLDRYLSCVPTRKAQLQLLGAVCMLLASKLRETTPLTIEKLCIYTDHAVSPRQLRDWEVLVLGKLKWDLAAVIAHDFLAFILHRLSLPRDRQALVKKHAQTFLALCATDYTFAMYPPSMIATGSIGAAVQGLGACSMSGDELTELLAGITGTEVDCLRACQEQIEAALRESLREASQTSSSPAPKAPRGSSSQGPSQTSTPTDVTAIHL
# method summary: CDK6 inhibition, Kinase-Glo Luminescent Kinase Assay
pIC50: −log10 of the molar value.
endpoint: pIC50

Cl.NCc1cccc(-c2nc(Nc3ccc(S(N)(=O)=O)cc3)nc3[nH]cnc23)c1 [Compound 11l]: 5.57

(a) Cl.NCc1cccc(-c2nc(Nc3cccc([N+](=O)[O-])c3)nc3[nH]cnc23)c1 [Compound 11c]
(b) CNS(=O)(=O)c1ccc(Nc2nc(-c3cccc(CN)c3)c3nc[nH]c3n2)cc1.Cl [Compound 11p]
Which numeric pIC50 is bigger, that of a or that of b ? Identify your selection by its label. a

====

Items are presented alongside their recorded melting point.

CNS(=O)(=O)c1ccc(Nc2nc(-c3cccc(CN)c3)c3nc[nH]c3n2)cc1.Cl [Compound 11p]: > 300 °C
O=[N+]([O-])c1cccc(Nc2nc(-c3ccsc3)c3nc[nH]c3n2)c1: > 280 °C
Cc1ccc(Nc2nc(-c3cccc(CN)c3)c3nc[nH]c3n2)cc1.Cl [Compound 11i]: > 300 °C

Annotate the compound O=[N+]([O-])c1cccc(Nc2nc(-c3ccc4c(c3)OCO4)c3nc[nH]c3n2)c1 with its measured melting point. 260 °C (dec.)

====

# study system: CDK2/cyclin A (Homo sapiens, UniProt P24941)
# method summary: CDK2 inhibition, Kinase-Glo Luminescent Kinase Assay
# Type: biochemical
# stated conditions: read-out: inhibition rate (%) @0.5 μM against CDK2; compound at 0.5 μM
endpoint: inhibition at 0.5 µM (%)

Cl.O=[N+]([O-])c1cccc(Nc2nc(-c3ccc[nH]3)c3nc[nH]c3n2)c1 [Compound 5c]: 37
Cl.NCc1cccc(-c2nc(Nc3ccccc3)nc3[nH]cnc23)c1 [Compound 11f]: 35
Cl.NCCc1cccc(-c2nc(Nc3cccc([N+](=O)[O-])c3)nc3[nH]cnc23)c1 [Compound 11e]: 35

====

endpoint: melting point

Consider the following illustrative entries.
Cl.NCc1cccc(-c2nc(Nc3ccccc3)nc3[nH]cnc23)c1 [Compound 11f]: 203 to 205 °C
Cl.NCc1cccc(-c2nc(Nc3ccc(-c4ccccc4)cc3)nc3[nH]cnc23)c1 [Compound 11h]: 210 °C (dec.)
Cl.NCc1ccc(-c2nc(Nc3cccc([N+](=O)[O-])c3)nc3[nH]cnc23)cc1 [Compound 11d]: > 300 °C
Cl.NCc1cccc(-c2nc(Nc3cccc([N+](=O)[O-])c3)nc3[nH]cnc23)c1 [Compound 11c]: 236 to 238 °C
Cl.O=[N+]([O-])c1cccc(Nc2nc(-c3ccc[nH]3)c3nc[nH]c3n2)c1: 236 °C (dec.)

Annotate the compound Cl.NCc1cccc(-c2nc(Nc3ccc(F)cc3)nc3[nH]cnc23)c1 [Compound 11n] with its measured melting point. > 300 °C

Annotate the compound Cl.Cl.NCc1cccc(-c2nc(Nc3cccc(N)c3)nc3[nH]cnc23)c1 [Compound 11m] with its measured melting point. > 300 °C

Provenance of the data: paper PMC9110766
